assay: PAMPA permeability; type: in vitro ADME; conditions: Hex, read-out: PAMPA Hex

COMPOUND: CCCc1nc(C)c2c(=O)[nH]c(-c3cc(S(=O)(=O)N(C)CCNC)ccc3OCC)nn12 [Compound 2]
Papp [×10⁻⁶ cm/s]: 1.17
--
COMPOUND: CCCc1nc(C)c2c(=O)[nH]c(-c3cc(S(=O)(=O)N(C)C(C)(C)C)ccc3OCC)nn12 [Compound 3]
Papp [×10⁻⁶ cm/s]: 53.9
--
COMPOUND: CCCc1nc(C)c2c(=O)[nH]c(-c3cc(S(=O)(=O)N(CCOCC)CCOCC)ccc3OCC)nn12 [Compound 10]
Papp [×10⁻⁶ cm/s]: 49
--
COMPOUND: CCCc1nc(C)c2c(=O)[nH]c(-c3cc(S(=O)(=O)N(C)C)ccc3OCC)nn12 [Compound 8]
Papp [×10⁻⁶ cm/s]: 68.9
--
COMPOUND: CCCc1nc(C)c2c(=O)[nH]c(-c3cc(S(=O)(=O)N(CC)CCOC)ccc3OCC)nn12 [Compound 9]
Papp [×10⁻⁶ cm/s]: 133
--
COMPOUND: CCCc1nc(C)c2c(=O)[nH]c(-c3cc(S(=O)(=O)N4CCC[C@H]4CN4CCCC4)ccc3OCC)nn12.Cl [Compound 11]
Papp [×10⁻⁶ cm/s]: 3.86

* * *

assay: Caco-2 permeability; type: in vitro ADME; conditions: human, BtoA
Catalogue of compounds with associated Papp B→A
PROPERTY: Papp B→A (×10⁻⁶ cm/s)

COMPOUND: CCCc1nc(C)c2c(=O)[nH]c(-c3cc(S(=O)(=O)N(CC)CCOC)ccc3OCC)nn12
UNITS: ×10⁻⁶ cm/s
VALUE REPORTED: 60.9
//
COMPOUND: CCCc1nc(C)c2c(=O)[nH]c(-c3cc(S(=O)(=O)N4CCN(C(=O)C5CCCO5)CC4)ccc3OCC)nn12 (stereo not shown)
UNITS: ×10⁻⁶ cm/s
VALUE REPORTED: 44.8
//
COMPOUND: CCCc1nc(C)c2c(=O)[nH]c(-c3cc(S(=O)(=O)N4CCN(CC(=O)NC(C)C)CC4)ccc3OCC)nn12
UNITS: ×10⁻⁶ cm/s
VALUE REPORTED: 46.3
//
COMPOUND: CCCc1nc(C)c2c(=O)[nH]c(-c3cc(S(=O)(=O)N(C)CC(OC)OC)ccc3OCC)nn12
UNITS: ×10⁻⁶ cm/s
VALUE REPORTED: 39.4

* * *

IC50 by entry:
molecular target: PDE-6 bovine (Bos taurus, UniProt P11541+P23439); assay: PDE-6 bovine inhibition
Sequence (P11541 2-856 limits assumed): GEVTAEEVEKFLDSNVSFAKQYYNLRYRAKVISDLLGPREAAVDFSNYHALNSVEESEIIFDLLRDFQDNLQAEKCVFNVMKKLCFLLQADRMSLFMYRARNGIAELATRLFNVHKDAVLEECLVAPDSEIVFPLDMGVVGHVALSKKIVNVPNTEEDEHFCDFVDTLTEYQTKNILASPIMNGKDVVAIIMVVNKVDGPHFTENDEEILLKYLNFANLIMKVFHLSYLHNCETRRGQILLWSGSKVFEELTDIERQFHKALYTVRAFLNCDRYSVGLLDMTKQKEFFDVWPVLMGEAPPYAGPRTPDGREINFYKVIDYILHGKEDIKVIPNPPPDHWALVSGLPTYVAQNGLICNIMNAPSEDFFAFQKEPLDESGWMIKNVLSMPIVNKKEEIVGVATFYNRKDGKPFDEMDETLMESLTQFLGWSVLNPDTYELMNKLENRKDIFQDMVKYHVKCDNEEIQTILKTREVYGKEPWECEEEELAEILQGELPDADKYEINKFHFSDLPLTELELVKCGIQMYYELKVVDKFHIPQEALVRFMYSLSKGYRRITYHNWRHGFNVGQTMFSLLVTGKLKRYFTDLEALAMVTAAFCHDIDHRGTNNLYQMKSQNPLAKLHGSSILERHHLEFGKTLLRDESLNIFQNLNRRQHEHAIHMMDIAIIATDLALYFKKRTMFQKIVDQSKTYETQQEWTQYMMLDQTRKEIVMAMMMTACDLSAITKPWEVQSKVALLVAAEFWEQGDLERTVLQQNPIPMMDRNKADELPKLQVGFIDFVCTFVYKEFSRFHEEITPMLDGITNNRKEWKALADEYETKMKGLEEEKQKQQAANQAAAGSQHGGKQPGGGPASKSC
Sequence (P23439 2-850 limits assumed): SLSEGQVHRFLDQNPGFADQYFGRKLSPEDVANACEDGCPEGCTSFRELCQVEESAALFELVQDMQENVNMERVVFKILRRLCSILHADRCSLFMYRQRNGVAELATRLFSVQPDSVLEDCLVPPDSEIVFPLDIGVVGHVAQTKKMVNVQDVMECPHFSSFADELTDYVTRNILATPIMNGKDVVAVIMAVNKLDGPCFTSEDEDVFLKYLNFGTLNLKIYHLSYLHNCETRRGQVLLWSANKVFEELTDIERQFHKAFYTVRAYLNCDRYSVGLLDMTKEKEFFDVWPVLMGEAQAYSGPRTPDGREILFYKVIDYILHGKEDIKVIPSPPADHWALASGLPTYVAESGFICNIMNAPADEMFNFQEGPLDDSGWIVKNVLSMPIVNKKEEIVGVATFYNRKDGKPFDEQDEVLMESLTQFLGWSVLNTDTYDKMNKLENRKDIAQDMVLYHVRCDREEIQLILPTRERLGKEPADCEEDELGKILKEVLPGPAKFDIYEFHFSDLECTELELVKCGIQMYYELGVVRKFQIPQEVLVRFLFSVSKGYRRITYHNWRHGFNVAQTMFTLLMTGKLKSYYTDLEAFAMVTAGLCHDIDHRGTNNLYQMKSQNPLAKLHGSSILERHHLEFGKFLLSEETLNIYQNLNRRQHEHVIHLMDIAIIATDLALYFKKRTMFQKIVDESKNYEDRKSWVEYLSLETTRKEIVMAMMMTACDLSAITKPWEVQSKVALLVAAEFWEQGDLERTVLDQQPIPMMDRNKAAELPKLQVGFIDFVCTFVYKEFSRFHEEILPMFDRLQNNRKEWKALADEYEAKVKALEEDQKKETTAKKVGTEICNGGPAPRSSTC

MOLECULE: CCCc1nc(C)c2c(=O)[nH]c(-c3cc(S(=O)(=O)NCCCN4CCCC4=O)ccc3OCC)nn12
UNITS: nM
IC50: 0.645
//
MOLECULE: CCCc1nc(C)c2c(=O)[nH]c(-c3cc(S(=O)(=O)NCCO)ccc3OCC)nn12
UNITS: nM
IC50: 5.63
//
MOLECULE: CCCc1nc(C)c2c(=O)[nH]c(-c3cc(S(=O)(=O)N4CCN(CC(=O)N5CCOCC5)CC4)ccc3OCC)nn12
UNITS: nM
IC50: 0.92
//
MOLECULE: CCCc1nc(C)c2c(=O)[nH]c(-c3cc(S(=O)(=O)N4CCN(CCN5CCOCC5)CC4)ccc3OCC)nn12
UNITS: nM
IC50: 1.09

* * *

assay: Caco-2 permeability; type: in vitro ADME; conditions: human, BtoA
Listing of recorded Papp B→A by entry.

MOLECULE: CCCc1nc(C)c2c(=O)[nH]c(-c3cc(S(=O)(=O)N4CCC[C@H]4CN4CCCC4)ccc3OCC)nn12.Cl
UNITS: ×10⁻⁶ cm/s
Papp B→A: 30.5
--
MOLECULE: CCCc1nc(C)c2c(=O)[nH]c(-c3cc(S(=O)(=O)N(C)CCNC)ccc3OCC)nn12
UNITS: ×10⁻⁶ cm/s
Papp B→A: 9.88
--
MOLECULE: CCCc1nc(C)c2c(=O)[nH]c(-c3cc(S(=O)(=O)N(C)C[C@H](COC)OC)ccc3OCC)nn12
UNITS: ×10⁻⁶ cm/s
Papp B→A: 57.4
--
MOLECULE: CCCc1nc(C)c2c(=O)[nH]c(-c3cc(S(=O)(=O)N4CCN(CC(=O)N(C)C)CC4)ccc3OCC)nn12
UNITS: ×10⁻⁶ cm/s
Papp B→A: 45.4
--
MOLECULE: CCCc1nc(C)c2c(=O)[nH]c(-c3cc(S(=O)(=O)N(C)CC(=O)O)ccc3OCC)nn12
UNITS: ×10⁻⁶ cm/s
Papp B→A: 5.5
--
MOLECULE: CCCc1nc(C)c2c(=O)[nH]c(-c3cc(S(=O)(=O)N(CCO)CCO)ccc3OCC)nn12
UNITS: ×10⁻⁶ cm/s
Papp B→A: 28.1
--
MOLECULE: CCCc1nc(C)c2c(=O)[nH]c(-c3cc(S(=O)(=O)N(C)C)ccc3OCC)nn12
UNITS: ×10⁻⁶ cm/s
Papp B→A: 47.4

* * *

Target or system UniProtKB O76074: recorded IC50 listed per item.

MOLECULE: CCCc1nc(C)c2c(=O)[nH]c(-c3cc(S(=O)(=O)N(C)CCNC)ccc3OCC)nn12
UNITS: nM
IC50: 0.646
--
MOLECULE: CCCc1nn(C)c2c(=O)[nH]c(-c3cc(S(=O)(=O)N4CCN(CCN5CCOCC5)CC4)ccc3OCC)nc12
UNITS: nM
IC50: 1.5
--
MOLECULE: CCCc1nc(C)c2c(=O)[nH]c(-c3cc(S(=O)(=O)N(C)CCN4CCCC4=O)ccc3OCC)nn12
UNITS: nM
IC50: 0.135
--
MOLECULE: CCCc1nc(C)c2c(=O)[nH]c(-c3cc(S(=O)(=O)N(C)CC(OC)OC)ccc3OCC)nn12
UNITS: nM
IC50: 0.066
--
MOLECULE: CCCc1nc(C)c2c(=O)[nH]c(-c3cc(S(=O)(=O)N(CCO)CCO)ccc3OCC)nn12
UNITS: nM
IC50: 0.52

* * *

biological target: PDE-6 bovine (Bos taurus, UniProt P11541+P23439); test: PDE-6 bovine inhibition
PROPERTY: log10 of IC50 (log10 of the value in nM)

MOLECULE: CCCc1nc(C)c2c(=O)[nH]c(-c3cc(S(=O)(=O)N(C)CC(OC)OC)ccc3OCC)nn12
log10 of IC50: -0.07
--
MOLECULE: CCCc1nc(C)c2c(=O)[nH]c(-c3cc(S(=O)(=O)N(CC)CCOC)ccc3OCC)nn12
log10 of IC50: -0.02
--
MOLECULE: CCCc1nc(C)c2c(=O)[nH]c(-c3cc(S(=O)(=O)N(C)CCNC)ccc3OCC)nn12
log10 of IC50: 1.21
--
MOLECULE: CCCc1nc(C)c2c(=O)[nH]c(-c3cc(S(=O)(=O)N(C)C)ccc3OCC)nn12
log10 of IC50: 0.70
--
MOLECULE: CCCc1nc(C)c2c(=O)[nH]c(-c3cc(S(=O)(=O)N(CCO)CCO)ccc3OCC)nn12
log10 of IC50: 1.23
--
MOLECULE: CCCc1nc(C)c2c(=O)[nH]c(-c3cc(S(=O)(=O)N(C)CC(=O)O)ccc3OCC)nn12
log10 of IC50: -0.32
--
MOLECULE: CCCc1nc(C)c2c(=O)[nH]c(-c3cc(S(=O)(=O)N(C)C[C@H](COC)OC)ccc3OCC)nn12
log10 of IC50: 0.46

* * *

system: PDE-1; assay: PDE-1 inhibition; type: biochemical
Hi! Could you tag entries with IC50 below 20 nM as True, and those at or above as False? Much appreciated.

MOLECULE: CCCc1nc(C)c2c(=O)[nH]c(-c3cc(S(=O)(=O)NCCO)ccc3OCC)nn12
CLASS: True
//
MOLECULE: CCCc1nc(C)c2c(=O)[nH]c(-c3cc(S(=O)(=O)N4CCN(C(=O)C5CCCO5)CC4)ccc3OCC)nn12 (stereo not shown)
CLASS: True
//
MOLECULE: CCCc1nc(C)c2c(=O)[nH]c(-c3cc(S(=O)(=O)N4CCN(CC(=O)N5CCOCC5)CC4)ccc3OCC)nn12
CLASS: True
//
MOLECULE: CCCc1nc(C)c2c(=O)[nH]c(-c3cc(S(=O)(=O)N4CCN(C(=O)CN(C)C)CC4)ccc3OCC)nn12
CLASS: False
//
MOLECULE: CCCc1nc(C)c2c(=O)[nH]c(-c3cc(S(=O)(=O)N4CCN(CC(=O)NC(C)C)CC4)ccc3OCC)nn12
CLASS: True
//
MOLECULE: CCCNS(=O)(=O)c1ccc(OCC)c(-c2nn3c(CCC)nc(C)c3c(=O)[nH]2)c1
CLASS: True
//
MOLECULE: CCCc1nc(C)c2c(=O)[nH]c(-c3cc(S(=O)(=O)N(CCO)CCO)ccc3OCC)nn12
CLASS: False

Data provenance is patent US8853394B2.
